Target: T1, alpha4beta7 on 38C13 alpha4+ murine lymphoma cells transfected with integrin beta7 (38C13beta7 cells) (murine, UniProt Q00651 41-1039; P26011 20-806)
T1 construct: whole, on cells; also called 38C13-beta7 expressing cells; murine beta7-containing receptor
T1 sequence (Q00651 41-1039, chain 1 of 2): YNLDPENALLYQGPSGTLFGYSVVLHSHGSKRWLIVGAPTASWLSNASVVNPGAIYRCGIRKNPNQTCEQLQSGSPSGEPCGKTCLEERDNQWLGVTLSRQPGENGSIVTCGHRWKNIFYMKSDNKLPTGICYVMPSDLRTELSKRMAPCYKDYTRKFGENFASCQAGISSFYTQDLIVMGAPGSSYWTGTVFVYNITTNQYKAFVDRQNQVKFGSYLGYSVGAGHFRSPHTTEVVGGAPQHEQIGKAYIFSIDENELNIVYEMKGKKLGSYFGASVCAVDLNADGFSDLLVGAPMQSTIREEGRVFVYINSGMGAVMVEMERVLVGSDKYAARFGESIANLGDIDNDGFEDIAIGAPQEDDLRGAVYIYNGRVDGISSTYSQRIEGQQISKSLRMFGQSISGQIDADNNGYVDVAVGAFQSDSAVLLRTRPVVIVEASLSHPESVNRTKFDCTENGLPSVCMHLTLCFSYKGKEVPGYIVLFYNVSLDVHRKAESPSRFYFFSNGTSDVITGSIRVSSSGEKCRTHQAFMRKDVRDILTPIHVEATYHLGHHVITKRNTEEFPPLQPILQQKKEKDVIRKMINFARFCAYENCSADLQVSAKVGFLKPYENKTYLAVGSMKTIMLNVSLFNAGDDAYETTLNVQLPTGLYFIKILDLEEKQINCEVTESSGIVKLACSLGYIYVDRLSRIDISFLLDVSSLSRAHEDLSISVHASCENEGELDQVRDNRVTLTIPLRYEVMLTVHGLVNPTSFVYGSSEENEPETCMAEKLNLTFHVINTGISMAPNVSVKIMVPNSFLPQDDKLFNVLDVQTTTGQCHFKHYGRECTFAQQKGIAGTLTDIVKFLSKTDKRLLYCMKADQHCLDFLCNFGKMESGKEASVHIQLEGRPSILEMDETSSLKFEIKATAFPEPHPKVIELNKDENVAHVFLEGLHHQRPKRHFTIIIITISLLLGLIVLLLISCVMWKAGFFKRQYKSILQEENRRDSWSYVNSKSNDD
T1 sequence (P26011 20-806, chain 2 of 2): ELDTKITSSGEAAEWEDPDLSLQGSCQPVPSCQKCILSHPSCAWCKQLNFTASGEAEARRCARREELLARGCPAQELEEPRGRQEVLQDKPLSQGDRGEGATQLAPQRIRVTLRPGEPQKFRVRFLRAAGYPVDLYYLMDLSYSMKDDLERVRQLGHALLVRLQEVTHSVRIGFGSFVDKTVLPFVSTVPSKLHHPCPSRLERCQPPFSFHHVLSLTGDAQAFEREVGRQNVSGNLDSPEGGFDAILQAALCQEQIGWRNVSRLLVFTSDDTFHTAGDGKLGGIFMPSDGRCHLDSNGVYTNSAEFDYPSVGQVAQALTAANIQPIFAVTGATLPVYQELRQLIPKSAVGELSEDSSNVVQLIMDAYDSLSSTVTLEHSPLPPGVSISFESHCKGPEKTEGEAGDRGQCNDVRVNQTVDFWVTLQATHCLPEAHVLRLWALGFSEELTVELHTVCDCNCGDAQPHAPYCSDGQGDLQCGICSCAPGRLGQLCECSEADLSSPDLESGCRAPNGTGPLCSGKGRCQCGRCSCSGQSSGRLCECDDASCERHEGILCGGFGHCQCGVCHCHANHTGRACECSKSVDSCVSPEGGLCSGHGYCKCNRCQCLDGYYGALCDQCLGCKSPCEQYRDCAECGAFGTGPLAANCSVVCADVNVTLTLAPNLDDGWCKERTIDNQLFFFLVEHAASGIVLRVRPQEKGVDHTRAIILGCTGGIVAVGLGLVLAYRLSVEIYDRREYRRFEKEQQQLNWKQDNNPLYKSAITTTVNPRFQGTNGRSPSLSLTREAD
Experiment: cell adhesion inhibition, 38C13beta7 cells on coated muVCAM-1-Ig, experiment 2 of 2
READOUT_NAME: IC90 (nM)
Quick reminder: number only, in nM, skip the unit.

Q: Item under review: Rat Fib504 (antibody FIB504.64 produced by hybridoma ATCC HB-293) (antibody, V domains shown, Whole rat antibody in the cell adhesion assays; also called rat anti-mouse beta7 antibody) VH: EVQLQESGPGLVKPSQSLSLTCSVTGFFITNNYWGWIRKFPGNKMEWMGYISYSGSTSYNPSLKSRISITRDTSKNQFFLQLNSVTTEDTATYYCAMTGSSGYFDFWGPGTMVTVSS VL: DVVMTQSPATLSVTPGERISLSCRASESVDTYLHWYQQKPNESPRLLIKYASQSISGIPSRFSGSGSGTDFTLSINGVELEDLSIYYCQQGNSLPNTFGAGTKLELKR . Reported IC90?
Result: 2.3

Q: Item under review: Variant hu504.32, IgG (antibody, V domains shown, methionine at heavy chain position 94; also called hu504.32M; 504.32M) VH: EVQLVESGGGLVQPGGSLRLSCAASGFFITNNYWGWVRQAPGKGLEWVGYISYSGSTSYNPSLKSRFTISRDTSKNTFYLQMNSLRAEDTAVYYCAMTGSSGYFDFWGQGTLVTVSS VL: DIQMTQSPSSLSASVGDRVTITCRASESVDDLLHWYQQKPGKAPKLLIKYASQSISGVPSRFSGSGSGTDFTLTISSLQPEDFATYYCQQGNSLPNTFGQGTKVEIKR . Reported IC90?
Result: 1.84

Q: Item under review: Variant hu504.16, IgG (antibody, name in Kabat numbering, V domains shown) VH: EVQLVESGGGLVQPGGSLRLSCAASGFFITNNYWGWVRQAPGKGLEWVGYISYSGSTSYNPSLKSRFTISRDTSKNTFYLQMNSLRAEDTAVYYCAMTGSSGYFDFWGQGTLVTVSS VL: DIQMTQSPSSLSASVGDRVTITCRASESVDTLLHWYQQKPGKAPKLLIKYASQSISGVPSRFSGSGSGTDFTLTISSLQPEDFATYYCQQGNSLPNTFGQGTKVEIKR . Reported IC90?
Result: 1.84

Q: Item under review: Variant hu504.5, IgG (antibody, name in Kabat numbering, V domains shown) VH: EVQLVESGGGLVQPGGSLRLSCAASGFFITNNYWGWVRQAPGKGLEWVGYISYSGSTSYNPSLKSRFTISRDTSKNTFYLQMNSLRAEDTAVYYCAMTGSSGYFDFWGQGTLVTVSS VL: DIQMTQSPSSLSASVGDRVTITCRASESVDSLLHWYQQKPGKAPKLLIKYASQSISGVPSRFSGSGSGTDFTLTISSLQPEDFATYYCQQGNSLPNTFGQGTKVEIKR . Reported IC90?
Result: 2.3
